- System: Bacillus cereus
- measurement_description: Antibacterial activity against Bacillus cereus by agar dilution method
- Type: functional
measure_name: MIC (µg/mL)

> print(dat)
                                   compound  value.reported
1  COc1ccc(-c2nn(-c3ccccc3)cc2/C=N/NC(=O)c2cccc(-n3cc(-c4ccccc4)nn3)c2)cc1OC               2
2  O=C(N/N=C/c1cn(-c2ccccc2)nc1-c1ccc(Cl)cc1)c1cccc(-n2cc(-c3ccccc3)nn2)c1               4
3  O=C(O)c1cn(C2CC2)c2cc(N3CCNCC3)c(F)cc2c1=O [CIPROFLOXACIN]               2
4  O=C(N/N=C/c1cn(-c2ccccc2)nc1-c1ccccc1)c1cccc(-n2cc(-c3ccccc3)nn2)c1               8
5  O=C(N/N=C/c1cn(-c2ccccc2)nc1-c1cccc(O)c1)c1cccc(-n2cc(-c3ccccc3)nn2)c1               2

====

- Test system: Pseudomonas aeruginosa
- measurement_description: Antibacterial activity against Pseudomonas aeruginosa MTCC 424 incubated for 24 hrs by two-fold serial dilution method
- Format: functional
Measured MIC accompanies every entry in the list below.
measure_name: MIC (µM)

> print(dat)
                           structure.string  unit.label  value.reported
1  O=C(Cn1cc(COc2ccc(OCc3cn(CC(=O)Nc4ccc([N+](=O)[O-])cc4)nn3)cc2)nn1)Nc1ccc([N+](=O)[O-])cc1          µM          0.0199
2  COc1ccc(NC(=O)Cn2cc(COc3ccc(OCc4cn(CC(=O)Nc5ccc(OC)cc5)nn4)cc3)nn2)cc1          µM           0.167
3  O=C(Cn1cc(COc2ccc(OCc3cn(CC(=O)Nc4ccccc4)nn3)cc2)nn1)Nc1ccccc1          µM          0.0928

====

- Tested on: Micrococcus luteus
- measurement_description: Antibacterial activity against Micrococcus Luteus ATCC 398 incubated for 24 hrs
- Format: functional

structure_string	MIC
O=c1cc(OCc2cn(Cc3ccc(Br)cc3)nn2)c2ccccc2o1	2 µg/mL
Cc1cc(OCc2cn(Cc3cccc([N+](=O)[O-])c3)nn2)cc2oc(=O)ccc12	2 µg/mL
Cc1cc(OCc2cn(Cc3ccc([N+](=O)[O-])cc3)nn2)cc2oc(=O)ccc12	2 µg/mL
O=c1cc(OCc2cn(Cc3ccc(Cl)cc3)nn2)c2ccccc2o1	2 µg/mL
O=c1cc(OCc2cn(Cc3cccc(Cl)c3)nn2)c2ccccc2o1	2 µg/mL
NC[C@H]1O[C@H](O[C@H]2[C@H](O)[C@@H](O[C@H]3O[C@H](CO)[C@@H](O)[C@H](N)[C@H]3O)[C@H](N)C[C@@H]2N)[C@H](O)[C@@H](O)[C@@H]1O	2 µg/mL
O=c1cc(OCc2cn(Cc3ccc([N+](=O)[O-])cc3)nn2)c2ccccc2o1	2 µg/mL
O=c1cc(OCc2cn(Cc3cccc([N+](=O)[O-])c3)nn2)c2ccccc2o1	2 µg/mL
Cc1cc(OCc2cn(Cc3ccc(Cl)cc3)nn2)cc2oc(=O)ccc12	2 µg/mL

====

Measured MIC accompanies every entry in the list below.
- Tested on: Pseudomonas aeruginosa
- measurement_description: Antibacterial activity against Pseudomonas aeruginosa ATCC 27853 by CLSI-based broth dilution method
- Format: functional
measure_name: MIC (µg/mL)

> print(dat)
                           structure.string  unit.label  value.reported
1  N=C(N)c1ccc2[nH]c(-c3ccc(OCc4cn(-c5ccccc5)nn4)cc3)nc2c1       µg/mL              16
2  CC(C)NC(=N)c1ccc2[nH]c(-c3ccc(OCc4cn(-c5ccc(Cl)cc5)nn4)cc3)nc2c1       µg/mL               8
3  N=C(N)c1ccc2[nH]c(-c3ccc(OCc4cn(Cc5ccccc5)nn4)cc3)nc2c1       µg/mL              16
